- system.under.test: Cytochrome P450 2D6 (Homo sapiens)
assay.readout: pKi
A value of pKi is the negative decimal logarithm of a concentration given in moles per litre.

Please fill in: pKi reported for C=CC1CN2CCC1C[C@@H]2[C@@H](O)c1ccnc2ccccc12 (stereo in doubt; 9b) = 6.00

###

Property: Ki; scope: individual molecules
- system.under.test: Cytochrome P450 2D6 (Homo sapiens)
Expressed in µM, but write only the number.

Some solved entries appear below for comparison.
{"columns": ["molecule", "value.measured"],
 "data": [
  ["C=CC1CN2CCC1C[C@@H]2[C@@H](O)c1ccnc2ccccc12 (stereo in doubt; 10b)", 7.5],
  ["C=CC1CN2CCC1C[C@@H]2[C@@H](O)c1ccnc2ccccc12 (stereo in doubt; 9b)", 3.5],
  ["CCC1CN2CCC1CC2[C@H](O)c1ccnc2ccccc12 (some centres undefined)", 8]
]}

Please fill in: Ki reported for CCC1CN2CCC1CC2C(O)c1ccnc2ccccc12 (centres undefined) = 1.6

###

- system.under.test: Cytochrome P450 2D6 (Homo sapiens, UniProt P10635)
- Sequence (P10635 whole entry): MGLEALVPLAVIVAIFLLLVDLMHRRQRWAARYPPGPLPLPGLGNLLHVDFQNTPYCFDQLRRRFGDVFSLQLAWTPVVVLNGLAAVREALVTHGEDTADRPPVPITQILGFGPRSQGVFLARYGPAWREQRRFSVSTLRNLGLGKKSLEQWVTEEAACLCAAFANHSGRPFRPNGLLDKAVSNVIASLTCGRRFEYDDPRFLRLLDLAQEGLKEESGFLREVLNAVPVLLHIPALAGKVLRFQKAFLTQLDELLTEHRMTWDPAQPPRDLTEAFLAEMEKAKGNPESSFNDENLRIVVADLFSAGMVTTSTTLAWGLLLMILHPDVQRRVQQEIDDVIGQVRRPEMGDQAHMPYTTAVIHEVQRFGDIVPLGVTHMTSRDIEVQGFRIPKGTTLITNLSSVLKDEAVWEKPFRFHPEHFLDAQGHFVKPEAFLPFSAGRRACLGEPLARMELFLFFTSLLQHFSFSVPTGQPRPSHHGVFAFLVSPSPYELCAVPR
- assay.overview: Inhibitory effect on Bufuralol 1'-hydroxylation by human liver microsomes (Ki = apparent inhibition constant)
- Format: ADME, Microsome
Property: log10 of Ki; scope: individual molecules
Reminder: these figures are log10 of reported Ki, in µM before transformation.

Some solved entries appear below for comparison.
{"columns": ["molecule", "assay.readout", "value.measured"],
 "data": [
  ["C=CC1C[N+]2(c3ccccc3)CCC1CC2C(O)c1ccnc2ccc(OC)cc12 (centres undefined)", "log10 of Ki", 1.40],
  ["C=CC1CN2CCC1C[C@@H]2[C@@H](O)c1ccnc2ccccc12 (stereo in doubt; 10b)", "log10 of Ki", 0.88],
  ["COc1ccc2[nH]cc(CCO)c2c1", "log10 of Ki", 2.00]
]}

Log: Cytochrome P450 2D6 (Homo sapiens, UniProt P10635), molecule COC(=O)C1=CO[C@@H](C)[C@@H]2CN3CCc4c([nH]c5ccccc45)[C@@H]3C[C@H]12 [TETRAHYDROALSTONINE] , log10 of Ki = 0.04

Log: Cytochrome P450 2D6 (Homo sapiens, UniProt P10635), molecule `COC(=O)C1=CO[C@@H](C)[C@H]2C[n+]3ccc4c([nH]c5ccccc54)c3C[C@H]12` , log10 of Ki = 0.34

Log: Cytochrome P450 2D6 (Homo sapiens, UniProt P10635), molecule CC1OC=C(CO)[C@H]2C[C@H]3c4[nH]c5ccccc5c4CCN3CC12 (some centres undefined) , log10 of Ki = 0.04

Log: Cytochrome P450 2D6 (Homo sapiens, UniProt P10635), molecule c1ccc2c(c1)[n-]c1c3[n+](ccc12)CC1CCCCC1C3 (centres undefined) , log10 of Ki = 0.99

Log: Cytochrome P450 2D6 (Homo sapiens, UniProt P10635), molecule `Cc1nccc2c1[nH]c1ccccc12` , log10 of Ki = 1.93

Log: Cytochrome P450 2D6 (Homo sapiens, UniProt P10635), molecule C=CC1CN2CCC1C[C@H]2[C@H](O)c1ccnc2ccc(Cl)cc12 (some centres undefined) , log10 of Ki = 0.54

###

- system.under.test: Cytochrome P450 2D6 (Homo sapiens)
- assay.overview: Apparent inhibitory constant (Ki) for Bufuralol 1'-hydroxylation by human liver microsomes
- Format: ADME, Microsome
assay.readout: pKi
A value of pKi is the negative decimal logarithm of a concentration given in moles per litre.

Please fill in: pKi reported for C=CC1CN2CCC1C[C@@H]2[C@@H](O)c1ccnc2ccccc12 (stereo in doubt; 9b) = 5.46
